Numbers sourced from patent US20260159512A1.

Measured target: BCAT2 (Homo sapiens, UniProt O15382)
Sequence (O15382 28-392): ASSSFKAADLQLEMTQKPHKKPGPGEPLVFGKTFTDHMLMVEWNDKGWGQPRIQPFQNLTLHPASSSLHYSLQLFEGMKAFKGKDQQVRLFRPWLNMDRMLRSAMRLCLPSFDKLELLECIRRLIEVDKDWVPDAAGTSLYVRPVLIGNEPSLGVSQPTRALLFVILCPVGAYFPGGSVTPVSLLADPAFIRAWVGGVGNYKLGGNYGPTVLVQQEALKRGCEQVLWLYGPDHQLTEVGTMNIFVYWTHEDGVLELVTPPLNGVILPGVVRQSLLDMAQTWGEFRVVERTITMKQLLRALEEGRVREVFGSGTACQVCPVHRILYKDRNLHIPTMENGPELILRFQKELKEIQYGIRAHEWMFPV
Experimental details: BCAT2 in vitro enzyme inhibition assay (resazurin/diaphorase-coupled fluorescence)
Format: biochemical
Measurement parameters: average where tested multiple times
pIC50: −log10 of the molar value.
Measured parameter: pIC50

Illustrative cases are given below, each with its answer.
> print(dat)
                                   compound                       measured.target  measured.parameter  observed.result
1  C#Cc1cnc(C(=O)N[C@H]2CCC[C@@H](n3c(-c4ccccn4)nc4cnc(-n5cncn5)cc43)C2)s1  BCAT2 (Homo sapiens, UniProt O15382)               pIC50           ≥ 7.00
2  CC(C)Cc1nc2cnc(-c3nccs3)cc2n1[C@@H]1CCC[C@H](NC(=O)c2ncc(Cl)s2)C1  BCAT2 (Homo sapiens, UniProt O15382)               pIC50           ≥ 7.00
3  COc1ccc(F)c(-c2nc3cnc(-c4nc[nH]n4)cc3n2[C@@H]2CCC[C@H](NC(=O)c3ccc(Cl)s3)C2)c1  BCAT2 (Homo sapiens, UniProt O15382)               pIC50           ≥ 7.00
4  CO[C@H]1C[C@H](NC(=O)c2ncc(Cl)s2)C[C@H](n2c(CC(C)C)nc3cnc(-c4ncc(C)o4)cc32)C1 (single isomer, unassigned)  BCAT2 (Homo sapiens, UniProt O15382)               pIC50           ≥ 7.00
5  O=C(NC1CC(O)CC(n2c(-c3ccccc3F)nc3cnc(-n4nccn4)cc32)C1)c1ncc(Cl)s1 (stereo not shown)  BCAT2 (Homo sapiens, UniProt O15382)               pIC50           ≥ 7.00

# context switch: different compound, same pIC50
Given CO[C@@H]1C[C@@H](NC(=O)c2ncc(Cl)s2)C[C@@H](n2c(-c3ncccc3F)nc3cnc(-c4nc[nH]n4)cc32)C1 (stereo in doubt) [Example 444] , respond with its pIC50.
≥ 7.00

---

Measured target: BCAT2 (Homo sapiens, UniProt O15382)
Experimental details: BCAT2 in vitro enzyme inhibition assay (resazurin/diaphorase-coupled fluorescence)
Assay type: biochemical
Measurement parameters: average where tested multiple times
Description: BCAT2 In Vitro Enzyme Inhibition Assay 1.67× hBCAT2 Enzyme Mix: 0.33 μg/mL hBCAT2, 1× Buffer 2.5× Substrate Mix: 460 μM L-leucine, 420 μM α-KetoGlutarate, 10 U/mL glutamate dehydrogenase, 10 mM NAD, 30 μg/mL diaphorase, 20 μm Resazurin BCAT2 enzyme stock solution was diluted to prepare a 1.67× hBCAT2 Enzyme Mix. […] Reactions were quenched after one hour by the addition of 25 μL of 6% SDS and reaction progress was measured via fluorescence read (Ex 540/Em 590). […]
Measured parameter: IC50

> print(dat)
                                   molecule                       measured.target  measured.parameter  observed.result
1  CO[C@H]1C[C@H](NC(=O)c2ncc(Cl)s2)C[C@H](n2c(CC(C)(C)C)nc3cnc(-c4ccccn4)cc32)C1 (single isomer, unassigned)  BCAT2 (Homo sapiens, UniProt O15382)                IC50         ≤ 100 nM

For COC(=O)c1cnn(-c2cc3c(cn2)nc(-c2ccccn2)n3[C@@H]2CCC[C@H](NC(=O)c3ncc(C(F)F)s3)C2)n1 , write its IC50.
≤ 100 nM

Give recorded IC50. O=C(N[C@H]1CCC[C@@H](n2c(-c3ccccc3F)nc3cnc(-n4cncn4)cc32)C1)c1ccc(Br)s1
≤ 100 nM
